- TESTED_TARGET: cynomolgus TSLPR on Ba/F3-cTSLPR-cIL7Ra cells (cynomolgus monkey)
- TEST_PROTOCOL: cell-based or functional assay
MEASURED_PROPERTY: IC50 Assay I, Ba/F3-cyTSLPR proliferation (µg/mL)
Record the value in µg/mL, omitting the unit from your answer.

[ask] Please give the measured IC50 Assay I, Ba/F3-cyTSLPR proliferation for this binder: mouse anti human TSLPR antibody 13H5 (antibody, mouse IgG1, V domains shown, Mouse IgG1/kappa purified from hybridoma supernatant; also called m13H5; LB55.13H5.2C3) VH: QVLLKQSGPSLVQPSQSLSITCTVSGFSLSRYGVHWVRQSPGKGLEWLGVIWRSGSTDYNAAFMSRLSITQDNSKSQVFFNMNSLQSDDSAIYYCAKKAFYVMDYWGQGTSVTVSS VL: DIQMTQTTSSLSASLGDRVTISCRASQDISIYLNWYQQKPDGTVKLLIYYTSRLHSGVPSRFSGSGSGTNFSLTITNLEEEDIATYFCQQGNTLPWTFGGGTKLEIKR
[reply] 0.0104

[ask] Please give the measured IC50 Assay I, Ba/F3-cyTSLPR proliferation for this binder: mouse antibody 54A11 (antibody, mouse IgG2a, V domains shown, Mouse IgG2a/kappa from hybridoma; also called m54A11; LB55.54A11.3D6) VH: EVQLQQSGPELVKPRASVKISCKASGYSFTGYYIHWVKQSHVKSLEWIGRINPYNGATIYNPNFKDKASLTVDKSSSTAFMEVHSLTSEDSAVYYCARSYGYVNYFDYWGQGTTLTVSS VL: EIVLTQSPATLSVTPGDSVSLSCRASQSISNNLHWYHQKSHESPRLLIKFGFQSISGIPSRFSGSGSGTDFTLSINSVETEDFGMYFCQQTNSWLTFGAGTKLELKR
[reply] 0.125
